method-notes: amyloid nucleation score (Sup35N fusion, yeast selection) (log enrichment); library NNK1; higher = more nucleation; inactive = no reads after selection;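 also: zero at mode of non-aggregating sequences after 7 days selection at 30°C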
parameter: amyloid nucleation score

> print(dat)
        residue.sequence                 parameter  test.value
 1  KFVYEGSGHQVILYVTLMGY  amyloid nucleation score       -1.59
 2        SNCVIVSQLKITDA  amyloid nucleation score      -0.184
 3  HISMRDFFSHLGRRVVGIMY  amyloid nucleation score        -1.1
 4  FYFGTSDIPGFFNKSIYLVP  amyloid nucleation score       0.435
 5          LWHFWGYGGALP  amyloid nucleation score      -0.738
 6        IVWSYSRTIYLNFI  amyloid nucleation score       0.873
 7  FFSYVYGVSACFLVTLLFGP  amyloid nucleation score      -0.229
 8  VGRYFTMCFYKSMHRCRRVF  amyloid nucleation score       0.266
 9  SSCSYLGRDRMCFWPYFLTT  amyloid nucleation score       0.016
10  STRYRPLNWYLTKPPVRFKM  amyloid nucleation score      -0.037

---

method-notes: amyloid nucleation score (Sup35N fusion, yeast selection) (log enrichment); library NNK2; higher = more nucleation; inactive = no reads after selection
parameter: amyloid nucleation score

> print(dat)
               substance  test.value
 1  NCEVFNGDALWRSFTGRYLM       0.042
 2                LERFEH        2.01
 3           REGYNAIMYDV       -1.27
 4  TITHLSNACTYMVDIRSFTF        5.38
 5  VVAPTKLLFKLPMALYVFVG      -0.299
 6  PPRYARFKSDLHSLHAVFGN        5.57
 7        STRCCTRYVCRTAV      -0.158
 8  FSFEWMFWGWTCNQGTDVVS      -0.319
 9  AVATGNTCSPVSVRKSLGQS        1.87
10  ETVFRLFFSYRGVANHVVPG      -0.408
11  LRLFNLKQKKNRKNWRMFAG      -0.979
12   ACCRTNFATLVLKEKMNLD       0.326
13  KSRWRQRILVPIPWWARHVE       0.239
14  SWSRYGCGVYSDVGVTLLQF       0.201
15                PAVWVN       -0.34
16   YYTWCYKKVFGNHWRQDFD       -1.23
17        RFCSMSLSWNYDSC         5.5
18  YKTIIRSVMSELSGSLRQSE        1.26
19  IPNVPCIRGVSYSDFFTSSY      -0.044
20  RSLYVVFWIAGFEWGEIRVA       0.822
21  RYPVDRLVMSKRCPALRDGG       0.652
22  PMFYGCGPKLCDYYMNVLFV        2.85
23             DRIGIRYWG        1.34
24              LSGLVFIN      -0.053
25            EKVSFASFMS       -1.31
26  VIVWFWRFQNMNVAREFMAE      -0.297
27  QVLTMNRLWVVPPAHYCVVG        0.84
28  VSVHAVGLSYCMICFSLQNG      -0.611
29  PGYPVTFLRRDAYAVREFEF        -0.1
30              HTYNLSKR        -1.1
31  VIRYINSEDFRTGREFTRGV       -1.68
32         FGVIICAMSCQKD         7.5
33            VNQFNVIIKD        3.33
34  KEFYGKRIFRCLYDVLVVLF       -1.25
35  YVYEIDYSRFQFCARWVGWA       0.597
36  LCNGKAPCFKLCIRCLVGLW        2.82

---

method-notes: amyloid nucleation score (Sup35N fusion, yeast selection) (log enrichment); library NNK3; higher = more nucleation; inactive = no reads after selection
parameter: amyloid nucleation score

> print(dat)
               substance                 parameter  test.value
 1  SSDILASFGCYSNFHLSHII  amyloid nucleation score    inactive
 2  FAICMFRGYLLYFLGLEDEA  amyloid nucleation score    inactive
 3  MLSYYRFWCPVGRVVMMSFW  amyloid nucleation score    inactive
 4              GGLTSYDQ  amyloid nucleation score    inactive
 5  IHRYGTRRYETLRGQHAPFP  amyloid nucleation score      -0.719
 6  IKFVIIRITHSREKFSVPLS  amyloid nucleation score    inactive
 7  INWAKHDWGFNYFSCSICWV  amyloid nucleation score        1.39
 8  KNSLDALFYVTALFCTLSGD  amyloid nucleation score      -0.122
 9          IRNSVLWGHFIR  amyloid nucleation score    inactive
10  GGFCKWRKCGVYKMTGHCPE  amyloid nucleation score    inactive
11          SRSVTESLCLYT  amyloid nucleation score    inactive
12    AQALRSVPEVWGEFTRSS  amyloid nucleation score    inactive
13  NLKKARSTSFIDEPECRPRP  amyloid nucleation score      -0.406
14  DGAYYGLCMMFNVSVLMGII  amyloid nucleation score       0.063
15  NVNLVSIVVVIMDEKDKVKE  amyloid nucleation score        2.84
16         HLRDMQRSQNLVG  amyloid nucleation score    inactive
17             VRSIRWKVT  amyloid nucleation score    inactive
18        HWLRCHEVEKVLVL  amyloid nucleation score    inactive
19  RFAVTSVMLTSETRDGFDHA  amyloid nucleation score    inactive
20    RGSGWRTYVCTGSYALRV  amyloid nucleation score    inactive
21     RAWVLHCGNGYWYPLGQ  amyloid nucleation score    inactive
22  FLDGFVQPISESINLLMFCT  amyloid nucleation score    inactive
23  SVFRSMSTSILVFSPVHYCE  amyloid nucleation score    inactive
24  LQVSIRLTLTNHVDRHTMPM  amyloid nucleation score        1.36
25           LSQVFLVMFKF  amyloid nucleation score    inactive
26           LYCRLCVSIFM  amyloid nucleation score       -0.02
27  ITYFLWAVFYDGFSMSFFVA  amyloid nucleation score    inactive
28     RAFMVSVSHCRMCWIWC  amyloid nucleation score    inactive
29      MFKNILCVHVLTSAGT  amyloid nucleation score    inactive
30           RMGIYCGDRFQ  amyloid nucleation score    inactive
31       IRVRTYSTKLPSLGH  amyloid nucleation score    inactive
32  YVRWCQWYGETDGPCCRNTV  amyloid nucleation score    inactive
33        MIIAFFCDYNGVEG  amyloid nucleation score    inactive
34  TVSYSQPVWSMDFIVGYLGV  amyloid nucleation score    inactive
35    AGWNMLVMTLCSTLFSQY  amyloid nucleation score    inactive
36  VSRYGYCCRRIYAELHGFPD  amyloid nucleation score    inactive
37  TSNRGDWVHFTVYSFYESTM  amyloid nucleation score    inactive
38  RFYKRICLLYPTRSEGESGF  amyloid nucleation score    inactive
39  MGTVVTMSMRLSNSVWGVGH  amyloid nucleation score        1.28
40  LCKSMRNDSLDYFLHCPGML  amyloid nucleation score    inactive
41  RDLMEGRTTLWMNSGTAIWA  amyloid nucleation score    inactive
42      IEVLKNLRMVTGLVTL  amyloid nucleation score    inactive
43  NLDIFGNKMLMGRRGMLNMS  amyloid nucleation score    inactive
44              YVIICYST  amyloid nucleation score      -0.539
45  QIALSYSCIITRCVCNLCQR  amyloid nucleation score        3.12
46  KYVVSYLGFKFGWKHYSKYY  amyloid nucleation score    inactive
47               RGLYKVD  amyloid nucleation score    inactive
48    RNYDFSKGITVSWRLLHA  amyloid nucleation score    inactive
49  CASSNRRESSYVLYSQWDIG  amyloid nucleation score    inactive
50          DVVLTNVFDCML  amyloid nucleation score    inactive
51        YWLRVIKRHRDRHR  amyloid nucleation score    inactive
52       RYYDLVSGSWWIYFG  amyloid nucleation score    inactive
53  VGAFLKLNRNLMTFSMARNY  amyloid nucleation score    inactive
54  ILSVSLVVHRKRTTWISNYH  amyloid nucleation score    inactive
55            DMHGRSNNLW  amyloid nucleation score    inactive
56  IRSERTLDSATWDPFVVLKD  amyloid nucleation score    inactive
57  STLQRDIICKCIHAKVTVWV  amyloid nucleation score    inactive
58  MKVLYDKVKSVTASIELWFW  amyloid nucleation score    inactive
59     LQRVFLENRTSVYSVTG  amyloid nucleation score    inactive
60                IMSFVS  amyloid nucleation score       0.031
61       RFSYWGKDRSRVSNL  amyloid nucleation score    inactive
62        LATRWRCCSCNAWS  amyloid nucleation score      -0.593
63  IIIVILLQNWTSVRAVKPIV  amyloid nucleation score    inactive
64             KDLKMYRGF  amyloid nucleation score    inactive
65  ACNSPEVLQNLQRLRSCGRR  amyloid nucleation score    inactive
66  QIMILVCCQTGFWSERARRG  amyloid nucleation score        2.98
